Numbers sourced from paper PMC12129716.

# Subject of test: α‐glucosidase
# Method notes: α-Glucosidase inhibitory assay (p-nitrophenyl-α-D-glucopyranoside, microplate reader)
# Condition summary: mean ± SEM, three independent experiments in triplicate
Reported property: IC50

## Task GET IC50 where system = α‐glucosidase and item = C=C(CO)[C@@H]1CC[C@]2(C(=O)O)CC[C@]3(C)C(CCC4[C@@]5(C)CC[C@H](O)C(C)(C)C5CC[C@]43C)C12 (stereo partly shown) [Compound 4, 30‐hydroxybetulinic acid]
## Result > 200 µM

## Task GET IC50 where system = α‐glucosidase and item = CC1=C2C=C3CCC4C(C)(C)CCC[C@@]4(C)C3CC2OC1=O (stereo partly shown) [Compound 2, jolkinolide E]
## Result > 200 µM

List the reported IC50 of each compound below.
1. C=C(C)[C@@H]1CC[C@]2(C(=O)O)CC[C@]3(C)[C@H](CC[C@@H]4[C@@]5(C)CC[C@H](O)C(C)(C)[C@@H]5CC[C@]43C)[C@@H]12 [Compound 11, betulinic acid]
2. C[C@@H]1CC[C@]2(C(=O)O)CC[C@]3(C)C(=CC[C@@H]4[C@@]5(C)CC[C@H](O)C(C)(C)[C@@H]5CC[C@]43C)[C@@H]2[C@]1(C)O [Compound 5, pomolic acid]

## Result
["45.3 µM", "> 200 µM"]
